- Measured Target: human GCGR (full-length glucagon receptor of 477 amino acids) (human, UniProt P47871 26-477)
- Sequence (P47871 26-477 limits assumed): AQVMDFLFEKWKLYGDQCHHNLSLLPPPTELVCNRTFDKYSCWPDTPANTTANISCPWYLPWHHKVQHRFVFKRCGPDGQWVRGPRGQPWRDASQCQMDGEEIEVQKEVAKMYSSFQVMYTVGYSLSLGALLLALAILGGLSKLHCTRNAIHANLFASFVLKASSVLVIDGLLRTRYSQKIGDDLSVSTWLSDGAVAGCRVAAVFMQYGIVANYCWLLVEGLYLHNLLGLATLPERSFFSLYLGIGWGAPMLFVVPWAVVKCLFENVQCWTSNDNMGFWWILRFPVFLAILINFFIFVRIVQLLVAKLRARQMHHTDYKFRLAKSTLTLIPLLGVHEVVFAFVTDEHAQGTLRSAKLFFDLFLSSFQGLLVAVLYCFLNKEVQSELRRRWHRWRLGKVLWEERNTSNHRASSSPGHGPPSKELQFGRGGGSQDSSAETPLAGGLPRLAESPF
- Assay: cell-based or functional assay
Catalogue of binders with associated IC50
Give just the number in nM; leave the unit off.

Tell me IC50 reported for hu1803-10 (antibody, human IgG4 S228P, kappa, F234A L235A, V domains shown) VH: EVQLVQSGAEVKKPGASVKVSCKASGYTFTDYWIEWVRQAPGQGLEWMGEILPGSTYTNYNEKFKGRVTFTADTSTSTAYMELSSLRSEDTAVYYCARGLSTLMAVDYFDYWGQGTTVTVSS VL: DIQMTQSPSSLSASVGDRVTITCRASQDISNYLNWYQQKPGKAVKLLIYYSSTLHSGVPSRFSGSGSGTDYTLTISSLQPEDFATYYCQQTNIFPWTFGGGTKVEIKR
76.7

Tell me IC50 reported for hu1810-9 (antibody, human IgG4 S228P, kappa, F234A L235A, V domains shown) VH: QVQLVQSGAEVKKPGSSVKVSCKASGGTFSNYAISWVRQAPGQGLEWMGEIYPTSGNTYYNEKFKGRVTITADKSTSTAYMELSSLRSEDTAVYYCARGVITTVVSTDYFDYWGQGTLVTVSS VL: DIQMTQSPSSLSASVGDRVTITCRASLDISNYLNWYQLKPGKAVKLLIYYTSTLHSGVSSRFSGSGSGTEYTLTISSLQPEDFATYYCQQGNMVPYTFGGGTKVEIKR
125

# evaluate next
Tell me IC50 reported for hu1803-4 (antibody, human IgG4 S228P, kappa, F234A L235A, V domains shown) VH: EVQLVQSGAEVKKPGASVKVSCKASGYTFTDYWIEWVKQAPGQGLEWIGEILPGSTYTNYNEKFKGRATFTADPSTSTAYMELSSLRSEDTAVYYCSRGLSTLMAVDYFDYWGQGTTVTVSS VL: DIQMTQSPSSLSASVGDRVTITCRASQDISNYLNWYQQKPGKAPKLLIYYSSTLHSGVPSRFSGSGSGTDFTLTISSLQPEDFATYYCQQTNIFPWTFGGGTKVEIKR
140
